Biological target: FKBP12 (Homo sapiens)
Sequence (P62942 whole entry, species assumed): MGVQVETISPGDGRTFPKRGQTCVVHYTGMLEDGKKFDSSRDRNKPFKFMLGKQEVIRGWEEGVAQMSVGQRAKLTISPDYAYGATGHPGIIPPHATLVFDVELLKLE
Experiment: rotamase inhibition assay (N-succinyl-Ala-Ala-Pro-Phe-p-nitroanilide, chymotrypsin-coupled)
Format: biochemical
Details: apparent Ki; NI = no inhibition at the concentrations tested; read-out: Rotamase Ki(app)
As shown below, each of these compounds has a reported Ki value.
test_readout: Ki (µM)

compound	quantitative_result
COCOC1(C(=O)C(=O)N2C3CCCC2C2=CN(C4CCCC4)C(=O)CN2C3=O)CCCC1 (centres unmarked)	1.4
COC(COC1(C(=O)C(=O)N2C3CCCC2C(=O)N(CCCCc2ccccc2)C3)CCCC1)OC (centres unmarked)	1.2
CCC(CC)(COCOC)C(=O)C(=O)N1C2CCCC1C(=O)N(CCCCc1ccccc1)C2 (centres unmarked)	0.86
C=CCC(CC=C)C(=O)OC[C@@H](CN1CC2CCCC(C1=O)N2C(=O)C(=O)C(C)(C)CC)OCc1ccccc1 (some centres unmarked)	0.79
COC1(C(=O)C(=O)N2C3CCCC2C2=CN(C4CCCC4)C(=O)CN2C3=O)CCCC1 (centres unmarked)	0.96

---

Target: FKBP12 (Homo sapiens)
Assay: rotamase inhibition assay (N-succinyl-Ala-Ala-Pro-Phe-p-nitroanilide, chymotrypsin-coupled)
Format: biochemical
Details: apparent Ki; NI = no inhibition at the concentrations tested; read-out: Rotamase Ki(app)
pKi: −log10 of the molar value.

compound	pKi
COC(CN1C[C@@H]2[C@H]3CCC[C@@H](C(=O)N2CC1=O)N3C(=O)C(=O)C1(OC)CCCC1)OC [Compound 115]	< 4.70
COCOC1(C(=O)C(=O)N2[C@@H]3CCC[C@H]2C(=O)N2CC(=O)N(CC(OC)OC)C[C@H]32)CCCC1 [Compound 119]	< 4.40
COC1(C(=O)C(=O)N2C3CCCC2C2=Cc4cc(C(F)(F)F)cc(C(F)(F)F)c4CN2C3=O)CCCC1 (stereo not drawn) [Compound 146]	< 4.30
